Ref: patent US20240067748A1

Subject Of Test: T1, human TROP2 protein (Sino Biological, #10428-H08H) (human, UniProt P09758 27-274)
T1 construct: bought protein; also called human Trop2 protein antigen (His tag); not shown: His tag
T1 sequence (looked up): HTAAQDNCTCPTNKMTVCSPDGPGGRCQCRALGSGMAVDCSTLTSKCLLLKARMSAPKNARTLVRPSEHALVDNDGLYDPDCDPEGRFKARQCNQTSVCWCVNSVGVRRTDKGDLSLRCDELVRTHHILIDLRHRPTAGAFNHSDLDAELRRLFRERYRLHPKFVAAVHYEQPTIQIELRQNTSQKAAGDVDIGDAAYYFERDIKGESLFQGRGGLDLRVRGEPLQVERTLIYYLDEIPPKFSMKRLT
Assay Procedure: BLI epitope binning (Octet), biotinylated human Trop2 on SA sensor; row = primary antibody; competitor (secondary antibody, column): hRS7
# Inhibition rate (%) annotations
Field format: number, assumed %, no unit text.

In the examples that follow, each entry is paired with its recorded Inhibition rate (%).
| Binder | Reported Value |
| --- | --- |
| PR001166 (antibody, human IgG1, kappa, V domains shown, fully human IgG1/kappa; also called antibody No. (27)) VH: QVQLQESGPGLVKPSETLSLTCAVSGYSISSGYFWAWIRQPPGKGLEWIGSIYHSGRTHYNPSLKSRVIISLDTSKNQFSLKLRSVTAADSAVYYCAREGYASGSYYWGQGTLVTVSS VL: EIVMTQSPATLSVSPGERATLSCRSSQSVNNYLAWFQQKPGQAPRLLIYDSSTRATGIPARFSGSGSGTEFTLTISSLQSEDFAFYFCQQYENWPLTFGGGTKVEIKR | 21.8 |
| PR001142 (antibody, human IgG1, kappa, V domains shown, fully human IgG1/kappa; also called antibody No. (9)) VH: QVQLQESGPGLVKPSGTLSLTCAVSGDSISSNNWWSWVRQPPGKGLEWIGEIYPGGNPNYNPSLKSRVTISVDKSKNQFSLKLNSVTAADTAVYYCARGSGVISYFDYWGQGTLVTVSS VL: DIQMTQSPSTLSASVGDRVTITCRASQSIGHWLAWYQQKPGKAPKLLIYKASSLESGVPSRFRGSGSGTEFTLTISSLQPDDFATYYCQQYSSYSPITFGQGSRLEIKR | 97.8 |
| PR001165 (antibody, human IgG1, kappa, V domains shown, fully human IgG1/kappa; also called antibody No. (26)) VH: QVQLVESGGGVVQPGRSLRLSCEASGFTFSHYGMHWVRQAPGKGLEWVAVIWYDGIKTYYVESVKGRFTISRDNSKNTLNLQMNRLRAEDTAVYYCARDGGFGESNYYGLDVWGQGTTVTVSS VL: DIQLTQSPSFLSASVGDRVTITCRASQGISSYLGWYQQKPGKAPKLLIYIASTLQSGVPSRFSGSGSGTEFTLTISSLQPEDFATYYCQQLNSYPYTFGQGTKLEIKR | 96.4 |

# next binder below
Prompt: I'd like to know its Inhibition rate (%). The binder in question is comparative example 2 antibody Tab (hRS7) (antibody, human IgG1, kappa, V domains shown, prepared on the basis of sacituzumab govitecan (ChemPartner, #T07-001); naked antibody) VH: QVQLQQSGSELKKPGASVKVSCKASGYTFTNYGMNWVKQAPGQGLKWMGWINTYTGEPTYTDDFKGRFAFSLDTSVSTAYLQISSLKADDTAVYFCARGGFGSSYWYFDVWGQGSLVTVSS VL: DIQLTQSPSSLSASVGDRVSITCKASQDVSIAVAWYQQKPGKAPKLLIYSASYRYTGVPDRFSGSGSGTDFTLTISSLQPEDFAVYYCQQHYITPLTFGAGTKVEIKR
Completion: 96.5
